This collection of values is drawn from ChEMBL document CHEMBL4190286.

- MEASURED ON: 5-hydroxytryptamine receptor 3A (Homo sapiens, UniProt P46098)
- Sequence (P46098 whole entry): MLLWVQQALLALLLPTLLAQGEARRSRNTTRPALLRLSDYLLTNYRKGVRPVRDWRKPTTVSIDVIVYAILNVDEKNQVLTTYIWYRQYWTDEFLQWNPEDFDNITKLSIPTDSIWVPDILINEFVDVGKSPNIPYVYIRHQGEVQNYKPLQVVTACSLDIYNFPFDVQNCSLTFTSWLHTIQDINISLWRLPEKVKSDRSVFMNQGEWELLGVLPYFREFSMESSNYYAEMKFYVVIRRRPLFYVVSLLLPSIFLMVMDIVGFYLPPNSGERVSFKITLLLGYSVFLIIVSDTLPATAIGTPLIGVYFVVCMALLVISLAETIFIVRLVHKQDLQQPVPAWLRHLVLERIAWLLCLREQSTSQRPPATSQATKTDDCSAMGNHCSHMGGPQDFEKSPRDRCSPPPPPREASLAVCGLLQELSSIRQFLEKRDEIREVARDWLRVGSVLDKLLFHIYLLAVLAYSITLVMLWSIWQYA
- EXPERIMENT DESCRIPTION: Displacement of [3H]-GR65630 from human 5-HT3 receptor expressed in HEKT cells after 90 mins by microbeta scintillation counting analysis
- Type: cell-based
METRIC: Ki

compound="Oc1ccccc1C1=N[C@@H]2CCC[C@@H]2S1 (racemic)" measured_on="5-hydroxytryptamine receptor 3A (Homo sapiens, UniProt P46098)" metric=Ki result="> 10 µM"
compound="CCCCCCCCOc1ccc(C2=N[C@@H](CO)[C@H](C)S2)cc1 (relative stereo)" measured_on="5-hydroxytryptamine receptor 3A (Homo sapiens, UniProt P46098)" metric=Ki result="> 10 µM"
compound="CCCCOc1ccc(C2=N[C@@H](CO)[C@H](C)S2)cc1 (relative stereo)" measured_on="5-hydroxytryptamine receptor 3A (Homo sapiens, UniProt P46098)" metric=Ki result="> 10 µM"
